The reported measurements were obtained from ChEMBL document CHEMBL2218924.

# TEST TARGET: ALK tyrosine kinase receptor (Homo sapiens) (UniProt Q9UM73)
# Sequence (Q9UM73 19-1620 limits assumed): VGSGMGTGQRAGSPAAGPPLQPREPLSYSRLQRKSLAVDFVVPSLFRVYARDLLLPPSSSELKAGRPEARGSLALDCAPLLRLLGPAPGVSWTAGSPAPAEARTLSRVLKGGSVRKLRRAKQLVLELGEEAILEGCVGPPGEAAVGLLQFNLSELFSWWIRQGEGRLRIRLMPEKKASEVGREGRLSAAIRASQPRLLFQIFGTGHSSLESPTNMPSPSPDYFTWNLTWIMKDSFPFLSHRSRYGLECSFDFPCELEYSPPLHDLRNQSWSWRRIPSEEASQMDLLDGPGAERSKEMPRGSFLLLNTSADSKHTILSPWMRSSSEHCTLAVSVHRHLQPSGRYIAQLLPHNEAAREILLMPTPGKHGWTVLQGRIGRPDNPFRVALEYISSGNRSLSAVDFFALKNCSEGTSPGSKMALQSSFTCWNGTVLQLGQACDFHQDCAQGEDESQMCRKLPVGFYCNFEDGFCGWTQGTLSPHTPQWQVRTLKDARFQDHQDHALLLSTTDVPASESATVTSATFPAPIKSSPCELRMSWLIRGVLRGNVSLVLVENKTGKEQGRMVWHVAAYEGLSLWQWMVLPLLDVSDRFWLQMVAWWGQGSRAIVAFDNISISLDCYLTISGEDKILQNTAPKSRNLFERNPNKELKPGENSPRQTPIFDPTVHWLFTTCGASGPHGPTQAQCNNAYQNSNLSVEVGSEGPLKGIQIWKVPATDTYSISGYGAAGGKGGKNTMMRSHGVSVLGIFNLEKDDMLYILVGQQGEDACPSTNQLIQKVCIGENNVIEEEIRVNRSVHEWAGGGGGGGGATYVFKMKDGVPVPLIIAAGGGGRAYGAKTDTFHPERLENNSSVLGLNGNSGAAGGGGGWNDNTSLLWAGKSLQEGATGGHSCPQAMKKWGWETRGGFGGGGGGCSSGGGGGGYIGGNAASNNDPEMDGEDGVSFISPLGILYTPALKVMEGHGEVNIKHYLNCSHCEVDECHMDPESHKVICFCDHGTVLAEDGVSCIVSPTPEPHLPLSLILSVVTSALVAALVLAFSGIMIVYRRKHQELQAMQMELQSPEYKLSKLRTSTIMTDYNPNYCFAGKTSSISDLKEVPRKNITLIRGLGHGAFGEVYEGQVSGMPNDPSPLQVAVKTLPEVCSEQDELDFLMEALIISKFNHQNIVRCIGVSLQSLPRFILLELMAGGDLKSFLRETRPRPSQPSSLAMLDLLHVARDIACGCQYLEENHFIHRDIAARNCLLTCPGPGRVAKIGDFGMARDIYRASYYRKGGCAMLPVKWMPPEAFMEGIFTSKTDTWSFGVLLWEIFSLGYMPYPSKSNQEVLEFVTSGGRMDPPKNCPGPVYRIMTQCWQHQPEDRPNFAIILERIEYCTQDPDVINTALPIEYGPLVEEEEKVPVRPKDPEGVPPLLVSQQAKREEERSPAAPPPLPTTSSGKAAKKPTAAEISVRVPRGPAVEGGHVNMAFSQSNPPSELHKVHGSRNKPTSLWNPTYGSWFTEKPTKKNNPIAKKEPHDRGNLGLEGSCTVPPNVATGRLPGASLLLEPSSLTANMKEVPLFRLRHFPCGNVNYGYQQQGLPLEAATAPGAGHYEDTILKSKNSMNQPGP
# MEASUREMENT PARAMETERS: at 10 µM
Could you please mark 1 for values of residual activity below 70% and -1 for values at or above it?

Below are worked cases with known answers.
Prompt: Does the reported residual activity of the following compound sit strictly below 70%? c1ccc(-c2n[nH]c3c2oc2ccccc23)cc1
Response: 1

Prompt: Another compound to look at: Oc1c2ccccc2c2c3c(cccc13)N=N2
Response: 1

Prompt: Another compound to look at: O=c1c2ccccc2[nH]c(=S)n1CCN1CCC(=C(c2ccc(F)cc2)c2ccc(F)cc2)CC1
Response: -1

Prompt: Another compound to look at: Cc1cc(Nc2nc(-c3ccccc3)nc3ccccc23)n[nH]1
Response: 1

Continuing:
Prompt: Does the reported residual activity of the following compound sit strictly below 70%? CN(C)c1ccc(/C=C2\C(=O)Nc3ccccc32)cc1
Response: 1

Prompt: Another compound to look at: N#CCCc1ccc2c(c1)-c1[nH]c3ccc([N+](=O)[O-])cc3c1CC(=O)N2
Response: 1

Prompt: Another compound to look at: NC(=O)c1ccc2[nH]c(-c3ccc(Oc4ccc(Cl)cc4)cc3)nc2c1
Response: -1

Prompt: Another compound to look at: c1ccc2c(-c3ccncc3)c[nH]c2c1
Response: -1

Prompt: Another compound to look at: CC(C)n1cnc2/c(=N/c3cccc(Cl)c3)nc(NCCO)[nH]c21
Response: 1

Prompt: Another compound to look at: O=C1Nc2ccccc2/C1=C1/Nc2ccccc2/C1=N\OCCC(O)CO (stereo unspecified)
Response: 1
